Assay: Cytotoxicity against Coxsackievirus B3 infected human Hep-2 cells assessed as reduction in cell viability measured after 48 hrs by MTT assay
Format: toxicity, cell-based
Conditions: Coxsackievirus B3 infected Hep-2 cells
Entries annotated with measured CC50 at 48 h

- Compound: "C=C[C@](C)(O)[C@H]1C[C@H]2C(=C)[C@@H]3C[C@H]4C(C)(C)CCC[C@]24[C@H]1O3"
  CC50 at 48 h: "161 µM"
- Compound: "C=C[C@@](C)(O)[C@@H]1C[C@H]2C(=C)[C@@H]3C[C@H]4C(C)(C)CCC[C@]24[C@H]1O3"
  CC50 at 48 h: "160 µM"
- Compound: "C=C[C@@](C)(O)[C@H]1C[C@H]2C(=C)[C@@H]3C[C@H]4C(C)(C)CCC[C@]24[C@H]1O3"
  CC50 at 48 h: "168 µM"
- Compound: "NC(=O)c1ncn([C@@H]2O[C@H](CO)[C@@H](O)[C@H]2O)n1 [RIBAVIRIN]"
  CC50 at 48 h: "386 µM"
